Target: HLA-A*29:02
Assay: IEDB peptide-MHC binding, purified MHC/competitive/fluorescence; filed as Kd, often an IC50 or EC50 that approximates it; bounds were set here for any values at or beyond the usual limits of such assays
Details: source organism: Mus musculus
measurement_label: Kd

Request: Using the record for SWNNHSYLY , state its measured Kd.
Response: ≤ 0.1 nM

---

Quick reference for Kd among some sequences
Biological target: HLA-A*68:02
Assay: IEDB peptide-MHC binding, purified MHC/competitive/radioactivity; filed as Kd, often an IC50 or EC50 that approximates it; bounds were set here for any values at or beyond the usual limits of such assays
Conditions: source organism: Dengue virus 2 Jamaica/1409/1983
Provide only the numeric value, understood in µM.

Check out these entries, answers already filled in.
SSVNVSLTAI
0.184
GVVTRSGAYV
0.333

With those in mind, consider the next sequence.
Request: Identify the reported Kd for the following entry. EAIMAVGMV
Response: 0.00179

Attribution: the Immune Epitope Database (IEDB)
